- Target or system: Anoctamin-1 (Mus musculus) (UniProt Q8BHY3)
- Sequence (Q8BHY3 whole entry, looked up): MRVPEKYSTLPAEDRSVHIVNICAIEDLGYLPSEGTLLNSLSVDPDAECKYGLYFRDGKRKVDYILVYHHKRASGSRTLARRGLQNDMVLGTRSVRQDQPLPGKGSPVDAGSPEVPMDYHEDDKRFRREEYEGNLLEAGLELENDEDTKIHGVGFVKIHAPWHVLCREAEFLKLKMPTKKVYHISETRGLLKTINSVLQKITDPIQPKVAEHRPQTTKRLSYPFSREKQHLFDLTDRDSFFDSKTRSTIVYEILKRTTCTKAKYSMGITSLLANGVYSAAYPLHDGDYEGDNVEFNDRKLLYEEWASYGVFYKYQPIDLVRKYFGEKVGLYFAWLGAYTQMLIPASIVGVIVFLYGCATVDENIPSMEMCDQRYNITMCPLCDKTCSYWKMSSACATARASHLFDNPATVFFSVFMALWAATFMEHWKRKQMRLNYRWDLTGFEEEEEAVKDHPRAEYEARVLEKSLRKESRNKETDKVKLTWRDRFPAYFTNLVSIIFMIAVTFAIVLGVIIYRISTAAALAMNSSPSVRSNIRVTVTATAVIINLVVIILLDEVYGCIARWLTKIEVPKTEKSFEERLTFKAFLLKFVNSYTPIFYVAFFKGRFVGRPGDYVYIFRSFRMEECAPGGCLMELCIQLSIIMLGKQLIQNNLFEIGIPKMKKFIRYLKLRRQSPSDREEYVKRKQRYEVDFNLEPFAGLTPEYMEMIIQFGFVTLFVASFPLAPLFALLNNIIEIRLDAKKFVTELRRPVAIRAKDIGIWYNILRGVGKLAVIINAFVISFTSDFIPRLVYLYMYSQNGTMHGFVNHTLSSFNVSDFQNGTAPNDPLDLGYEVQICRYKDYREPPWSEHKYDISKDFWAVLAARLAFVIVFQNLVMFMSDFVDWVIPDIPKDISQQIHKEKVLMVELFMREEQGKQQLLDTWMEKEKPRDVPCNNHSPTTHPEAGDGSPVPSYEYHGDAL
- Experiment description: blockers of mouse ANO1 Ca-activated Cl channel – cell-based, HTS, primary screen (AID 588511)
- Experimental context: HEK293 TMEM16A/YFP iodide influx fluorescence, ionomycin; at 10 µM
The campaign covered roughly 310,000 compounds. About 3,600 (1.2%) were called active.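 Rule for the calls: active = ratio plate-corrected score three or more library SD toward inhibition, starting fluorescence score within five deviations; inactive = the rest.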 The entries come from a sample that favours actives as a whole.
A correct response names exactly one class from active, inactive

input: So what was the verdict on N#CC1=C(SCc2ccccc2)NC(=O)C(C#N)C12CCCC2 (configuration not stated) in this test?
output: active

input: So what was the verdict on `Cc1cc(-c2ccc(C)c(S(=O)(=O)Nc3ccc(S(N)(=O)=O)cc3)c2)on1` in this test?
output: inactive

input: So what was the verdict on `CC(=N\NC(=O)c1cc(Br)ccc1O)/C(=N/O)C(=O)Nc1ccccc1` in this test?
output: active

input: So what was the verdict on `CCn1c(=O)c(=O)n(CC)c2cc(S(=O)(=O)N3CCc4ccccc43)ccc21` in this test?
output: inactive

input: So what was the verdict on `FC(F)(F)c1cccc(NC(=S)Nc2cccc(Cl)c2)c1` in this test?
output: active

input: So what was the verdict on `Nc1nnc(SCC(=O)OCc2ccc(Cl)c(Cl)c2)s1` in this test?
output: inactive

input: So what was the verdict on CC(Sc1nnc(Cc2ccc([N+](=O)[O-])cc2)o1)C(N)=O (configuration not stated) in this test?
output: inactive

input: So what was the verdict on `CCN1CC=C2C(C#N)=C(N)C(C#N)(C#N)[C@H](c3ccoc3)[C@H]2C1` in this test?
output: inactive

input: So what was the verdict on CC(Oc1ccc(Cl)cc1)c1ccnn1S(C)(=O)=O (configuration not stated) in this test?
output: inactive
